- Test system: NCI-H226 lung
- MEASUREMENT NOTES: NCI tumour cell line growth inhibition, 48 h
MEASURED ENDPOINT: GI50

# count of solved cases: 2
COc1cc(OC)cc(C2CC(=O)Nc3c2c(C)nn3-c2nc3ccccc3[nH]2)c1 (stereo not drawn); 2.52 µM
Nc1c(C(=O)c2ccc(Cl)cc2)sc(Nc2ccccc2)c1-c1nc2ccccc2s1; 1.58 µM

Please examine the following record next.
Query :: # query: GI50 of entry `COc1cc(/C=C/C(=O)CC(=O)/C=C/c2cc(OC)c(OC)c(OC)c2)cc(OC)c1OC`
Result :: 10.2 µM

* * *

Quick list: GI50 per entry.
- Test system: BT-549 breast
- MEASUREMENT NOTES: NCI tumour cell line growth inhibition, 48 h

CC[C@H](NC(=O)[C@H](C)NC)C(=O)N1C[C@@H](O)C[C@H]1Cc1c(-c2[nH]c3cc(F)ccc3c2C[C@@H]2C[C@H](O)CN2C(=O)[C@H](CC)NC(=O)[C@H](C)NC)[nH]c2cc(F)ccc12; 569 nM
O=C(O[C@H]1CN[C@H](C#Cc2cc3ncnc(Nc4ccc5c(ccn5Cc5cc(F)ccc5F)c4)c3s2)C1)N1CCOCC1; 4320 nM
Cc1nc2sc(C(=O)Nc3cccc(Cl)c3C)c(N)c2cc1C(=O)/C=C/c1ccccc1; 525 nM

Query :: Form field: GI50 recorded for `O=Cc1ccc(-c2cc(C=O)c(-c3cccs3)[nH]2)s1` with BT-549 breast (enter value)
Result :: > 100000 nM

Query :: Lab request: please report GI50 under test system BT-549 breast for `CC(C)(C#N)c1cc(Cn2cncn2)cc(C(C)(C)C#N)c1`
Result :: 472000 nM

Query :: Write down the reported GI50 of `CCN1CCN(C(=O)[C@]23CC[C@@H](C)[C@H](C)[C@@H]2C2=CC[C@@H]4[C@@]5(C)C/C(=C/c6ccncc6)C(=O)C(C)(C)[C@@H]5CC[C@@]4(C)[C@]2(C)CC3)CC1` , test system: BT-549 breast.
Result :: 1780 nM

Query :: # get_value(readout= GI50, system= BT-549 breast) for `Cc1ccccc1NC(=O)N/C(N)=N/c1nc(-c2cccc([N+](=O)[O-])c2)cs1`
Result :: 2160 nM

* * *

- Test system: SW-620 colon
- MEASUREMENT NOTES: NCI tumour cell line growth inhibition, 48 h; in the data active = GI50 below about 0.43 µM; inactive = the rest
Give your call using only these classes: active, inactive

NOCC(=O)O; inactive
COc1cc(OC)c(/C=C/S(=O)(=O)Cc2cnc(OC)c(N)c2)c(OC)c1; active
CCOC(=O)C(N)C[S][Sn]([CH3])([CH3])[Cl] (stereo not drawn); inactive

Query :: Please share the test call associated with `O=[N+]([O-])c1cc(Cl)c(Cl)c([N+](=O)[O-])c1Cl` .
Result :: inactive

Query :: Which outcome did this test record for the molecule C=CCC(N[C@H](CO)c1ccccc1)c1ccc2ccccc2n1 (stereo partly drawn) ?
Result :: inactive

Query :: Per the assay record, what outcome was assigned to `O=C1Nc2ccc(C(=O)c3ccco3)cc2/C1=C/c1cc(Cl)c(O)c(Cl)c1` ?
Result :: inactive

Query :: # lookup: test call for `CCOC(=O)C(Cc1c[nH]c2ccc(N)cc12)(NC(C)=O)C(=O)OCC`
Result :: inactive

Query :: Dear colleague, could you share the recorded outcome for `COc1cc(Nc2nccc(Nc3ccc4c(C)[nH]nc4c3)n2)cc(OC)c1OC` when you have a moment?
Result :: inactive

Query :: Field: outcome | Entry: CCN(CC)CCCC(C)Nc1c2ccc(Cl)cc2nc2ccc(OC)cc12 (stereo not drawn)
Result :: inactive

Query :: Name the outcome recorded for CSc1ccc(C2=NN(C(=O)c3ccc(F)cc3)C(c3ccc(F)cc3)C2)cc1 (stereo not drawn) in the assay.
Result :: inactive

Query :: What call does the record list for `CC[C@H](NC(=O)[C@H](C)NC)C(=O)N1C[C@@H](O)C[C@H]1Cc1c(-c2[nH]c3cc(F)ccc3c2C[C@@H]2C[C@H](O)CN2C(=O)[C@H](CC)NC(=O)[C@H](C)NC)[nH]c2cc(F)ccc12` ?
Result :: inactive

Query :: Hey, what did the test say about `CC(C)(C#N)c1cc(Cn2cncn2)cc(C(C)(C)C#N)c1` ?
Result :: inactive

Query :: What did the test return for `CCN1CCN(C(=O)[C@]23CC[C@@H](C)[C@H](C)[C@@H]2C2=CC[C@@H]4[C@@]5(C)C/C(=C/c6ccncc6)C(=O)C(C)(C)[C@@H]5CC[C@@]4(C)[C@]2(C)CC3)CC1` ?
Result :: inactive

* * *

- System: SNB-78 CNS
- MEASUREMENT NOTES: NCI tumour cell line growth inhibition, 48 h
Collected TGI values appear next to each entry.

Answered cases to consult:
CC(=O)c1cccc(N2COC(C)(C)c3nc4ccccc4n3C2)c1; > 100 µM
COc1c2nc(CCl)[nH]c(=O)c2c(OC)c2nc(CCl)[nH]c(=O)c12; > 100 µM
CCN(CC)CCCC(C)Nc1c2ccc(Cl)cc2nc2ccc(OC)cc12 (stereo not drawn); 11.5 µM
NC(=O)C(=Cc1ccc(C(O)P(=O)(O)O)cc1)C(N)=O (stereo not drawn); > 100 µM
O=C(/C=C/c1ccc([N+](=O)[O-])o1)N1CCN(Cc2ccccc2)CC1; 54.5 µM
O=[N+]([O-])c1cccc(/C=N\NS(=O)(=O)c2ccc(Cl)cc2)c1O; > 100 µM
COc1cc(Cl)c2c3c(c(C(C)=O)oc13)CCC2; > 100 µM

Let us examine a further case.
Query :: Param readout = TGI; param system = SNB-78 CNS; param query = `COc1cc2c[n+](C)c3c4cc5c(cc4ccc3c2cc1OC)OCO5` ; response: value
Result :: > 25.9 µM

* * *

- System: HOP-62 NSCLC
- MEASUREMENT NOTES: NCI tumour cell line growth inhibition, 48 h
MEASURED ENDPOINT: TGI

O=C(Nc1ccc(Cl)cc1)C(=O)C(C(=O)c1ccccc1-c1ccccc1)C1OC(=O)c2ccccc21 (stereo not given); > 100 µM

Query :: Bench note: what TGI did CC1C[C@@]2(c3ccccc3)C(=O)CCC[C@H]2N1 (stereo not given in full) show?
Result :: > 100 µM

Query :: Given CCOC(=O)NNC(=O)C1CSC(c2ccccc2)N1C(C)=O (stereo not given) , state its recorded TGI.
Result :: > 100 µM

Query :: Item `CCOC(=O)c1cc(C#N)c(=O)n(/N=C(\C)c2ccncc2)c1O` has what recorded TGI?
Result :: > 100 µM

Query :: Give the measured TGI of `CC(=O)c1cccc(N2COC(C)(C)c3nc4ccccc4n3C2)c1` .
Result :: > 100 µM

Query :: Item under review: `Nc1nc(N)c2cc(Sc3ccc4nc(N)nc(N)c4c3)ccc2n1` . Reported TGI?
Result :: > 100 µM

Query :: // returns reported TGI for input `N=c1oc2ccc([N+](=O)[O-])cc2cc1C(=O)NCc1ccccc1`
Result :: > 100 µM

Query :: I am curious: what TGI value has been reported for `COc1cc2c(cc1OCCCOc1cc3c(cc1OC)C(=O)N1C[C@H](F)C[C@H]1C=N3)N=C[C@@H]1C[C@@H](F)CN1C2=O` ?
Result :: 19.3 µM

Query :: Need TGI, item CC(C)=CCCC(C)c1ccc(C)c2c1OCN(CC1CCNCC1)C2 (stereo not given)
Result :: 28.7 µM

Query :: What value of measured TGI is listed for CCN(CC)CC(O)CNc1ccc(NCC2CO2)c2c1C(=O)c1ccccc1C2=O (stereo not given) ?
Result :: 4.02 µM

* * *

Reported TGI values for the following molecules.
- System: RXF-631 renal
- MEASUREMENT NOTES: NCI tumour cell line growth inhibition, 48 h

Examples with answers:
CCN(CC)CC(O)CNc1ccc(NCC2CO2)c2c1C(=O)c1ccccc1C2=O (stereo unspecified); 2.24 µM
CCN(CC)CCCC(C)Nc1c2ccc(Cl)cc2nc2ccc(OC)cc12 (stereo unspecified); 3.55 µM
COC(=O)C1C(C(=O)OC)C2(OC)c3ccccc3-c3ccccc3C12 (stereo unspecified); > 100 µM
O=S(=O)(N/N=C/c1ccc(/C=N/NS(=O)(=O)c2ccccc2)cc1)c1ccccc1; > 100 µM
CC[C@@H]1OC2(C)CC(S(=O)(=O)c3ccccc3O)CC1O2 (stereo partly specified); > 100 µM

We now examine a further molecule.
Query :: Form field: TGI recorded for COC(=O)C(C)NP(=O)(N1CC1)N1CC1 (stereo unspecified) with RXF-631 renal (enter value)
Result :: > 100 µM

* * *

- Tested on: EKVX NSCLC
- MEASUREMENT NOTES: NCI tumour cell line growth inhibition, 48 h
MEASURED ENDPOINT: TGI

O=C(c1cc(Cl)cc(Cl)c1)N(C(=O)N1CCN(c2ccccc2)CC1)c1ccccc1; > 100 µM

Query :: API: value(readout= TGI, system= EKVX NSCLC, query= `COc1cc(/C=C(\C#N)C(=O)c2ccccc2)ccc1OCc1ccccc1` )
Result :: > 100 µM

Query :: Param readout= TGI; system= EKVX NSCLC; entry= `COc1ccc(OC)c2sc(N3C(=O)/C(=C/c4ccc(Cl)cc4)N=C3c3ccccc3)nc12` ; returns value.
Result :: > 100 µM

Query :: # query: TGI | item COC(=O)Nc1nc2ccc(S(=O)(=O)NC(CC(C)C)C(=O)OC)cc2[nH]1 (stereo not given) | system: EKVX NSCLC
Result :: 89.8 µM

Query :: Quick check: TGI on EKVX NSCLC, item `COc1cc(C(=O)/C(C)=C/c2c[nH]c3ccccc23)cc(OC)c1OC` ?
Result :: > 100 µM
